- RUN DESCRIPTION: qHTS assay to identify small molecule antagonists of the constitutive androstane receptor (CAR) signaling pathway - cell viability counter screen (AID 1224837); further: nearly all actives have a fitted effect of over 45% in size
- CONDITION DETAILS: HepG2-CYP2B6-hCAR viability, CellTiter-Fluor, 23 h, co-treated with 50 nM CITCO; series mostly up to 92.4 µM
Inconclusive results are not listed. Calls of active or inactive are those of the source. The call rests on the fitted dose curve; in most records, active means well fitted cell-killing curve with a large enough effect in the repeat runs; inconclusive means weak or mixed curves, or effect the other way; inactive means flat fitted curve, though single readings scatter.
Use one of these outcomes when replying: active, inactive

State the result this test recorded for `CC1(C)[C@H](C=C(Cl)Cl)[C@@H]1C(=O)O[C@@H](C#N)c1cccc(Oc2ccccc2)c1` . inactive

State the result this test recorded for CC1(C)CCC(Cc2ccc(Cl)cc2)C1(O)Cn1cncn1 (stereo unspecified) . inactive

State the result this test recorded for `O=C1NCN(c2ccccc2)C12CCN(CCCOc1ccc(F)cc1)CC2` . active

State the result this test recorded for `CN(N=O)c1ccc([N+](=O)[O-])cc1` . inactive

State the result this test recorded for `CN1C[C@H](CNC(=O)OCc2ccccc2)C[C@@H]2c3cccc4c3c(cn4C)C[C@H]21` . inactive

State the result this test recorded for CC(O)(CS(=O)(=O)c1ccc(F)cc1)C(=O)Nc1ccc(C#N)c(C(F)(F)F)c1 (stereo unspecified) . inactive

State the result this test recorded for `CC(c1ccc(O)cc1)(c1ccc(O)cc1)c1ccc(O)cc1` . inactive

State the result this test recorded for `ClCCCCBr` . inactive

State the result this test recorded for O=C(NC(=O)c1c(F)cccc1F)Nc1ccc(OC(F)(F)C(F)OC(F)(F)F)c(Cl)c1 (stereo unspecified) . inactive

State the result this test recorded for `CCCCN(N=O)C(=N)N[N+](=O)[O-]` . inactive

State the result this test recorded for `CC(=O)CCC(C)=O` . inactive

###

- SYSTEM UNDER TEST: Glucocorticoid receptor (Homo sapiens) (UniProt P04150)
- Sequence (P04150 whole entry, looked up): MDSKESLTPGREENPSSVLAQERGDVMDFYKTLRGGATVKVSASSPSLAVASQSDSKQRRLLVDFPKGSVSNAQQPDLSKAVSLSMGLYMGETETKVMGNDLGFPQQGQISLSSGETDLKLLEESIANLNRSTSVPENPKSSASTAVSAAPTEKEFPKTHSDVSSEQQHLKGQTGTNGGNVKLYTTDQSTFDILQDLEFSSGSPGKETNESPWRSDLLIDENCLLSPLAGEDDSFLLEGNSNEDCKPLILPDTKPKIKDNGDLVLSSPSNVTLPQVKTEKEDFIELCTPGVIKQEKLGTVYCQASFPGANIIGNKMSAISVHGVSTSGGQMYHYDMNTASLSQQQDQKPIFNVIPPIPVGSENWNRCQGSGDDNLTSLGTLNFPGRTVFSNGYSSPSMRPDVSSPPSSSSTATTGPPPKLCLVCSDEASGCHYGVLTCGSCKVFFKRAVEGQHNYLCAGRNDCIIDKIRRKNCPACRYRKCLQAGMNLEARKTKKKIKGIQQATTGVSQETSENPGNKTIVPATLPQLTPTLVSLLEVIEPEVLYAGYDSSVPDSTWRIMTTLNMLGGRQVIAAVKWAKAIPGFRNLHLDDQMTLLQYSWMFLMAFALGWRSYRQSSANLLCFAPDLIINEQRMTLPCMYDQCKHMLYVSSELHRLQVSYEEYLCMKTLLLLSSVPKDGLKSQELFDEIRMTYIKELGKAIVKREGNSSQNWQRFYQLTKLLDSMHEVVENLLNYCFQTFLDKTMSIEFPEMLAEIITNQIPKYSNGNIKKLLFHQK
- RUN DESCRIPTION: qHTS assay to identify small molecule antagonists of the glucocorticoid receptor (GR) signaling pathway (AID 720692)
- CONDITION DETAILS: GR-bla HeLa, beta-lactamase FRET ratio, dexamethasone-stimulated, 18 h; series mostly up to 58.5 µM
Results filed as inconclusive are left out. Activity calls are given as the source filed them. Calls come from the whole dose curve; as a rule, active = well fitted inhibition curve with a large enough effect in the signal ratio in the repeat runs (not every such curve was filed as active); inconclusive = weak or mixed curves, or effect the other way; inactive = no such curve, though single readings can be large or run the other way; the % refers to the signal ratio.
Use one of these outcomes when replying: active, inactive

State the result this test recorded for CC(Cl)C(C)Cl (stereo not drawn) . inactive

State the result this test recorded for `CC(=O)[C@H]1CC[C@H]2[C@@H]3CC[C@H]4C[C@](C)(O)CC[C@]4(C)[C@H]3CC[C@]12C` . inactive

State the result this test recorded for `OCCCBr` . inactive

State the result this test recorded for `CCCN(CCC)c1c([N+](=O)[O-])cc(S(C)(=O)=O)cc1[N+](=O)[O-]` . inactive

State the result this test recorded for O=C(NC(=O)c1c(F)cccc1F)Nc1ccc(OC(F)(F)C(F)OC(F)(F)F)c(Cl)c1 (stereo not drawn) . inactive

State the result this test recorded for `c1ccc(CN2CCNCC2)cc1` . inactive

State the result this test recorded for `O=C(Nc1ccccc1)Nc1cnns1` . inactive

State the result this test recorded for `CC(C)N(C(=O)COc1nnc(C(F)(F)F)s1)c1ccc(F)cc1` . active

State the result this test recorded for COCC(C)N(C(=O)CCl)c1c(C)csc1C (stereo not drawn) . inactive

State the result this test recorded for CN1C(=O)NC(=O)C(C)(C2=CCCCC2)C1=O (stereo not drawn) . inactive

State the result this test recorded for `II` . inactive

State the result this test recorded for `CCCCOC(=O)c1ccccc1C(=O)OCc1ccccc1` . inactive

State the result this test recorded for `Nc1nc(N)nc(N)n1` . inactive

###

- SYSTEM UNDER TEST: Nuclear receptor subfamily 1 group I member 3 (Homo sapiens) (UniProt Q14994)
- Sequence (Q14994 whole entry, looked up): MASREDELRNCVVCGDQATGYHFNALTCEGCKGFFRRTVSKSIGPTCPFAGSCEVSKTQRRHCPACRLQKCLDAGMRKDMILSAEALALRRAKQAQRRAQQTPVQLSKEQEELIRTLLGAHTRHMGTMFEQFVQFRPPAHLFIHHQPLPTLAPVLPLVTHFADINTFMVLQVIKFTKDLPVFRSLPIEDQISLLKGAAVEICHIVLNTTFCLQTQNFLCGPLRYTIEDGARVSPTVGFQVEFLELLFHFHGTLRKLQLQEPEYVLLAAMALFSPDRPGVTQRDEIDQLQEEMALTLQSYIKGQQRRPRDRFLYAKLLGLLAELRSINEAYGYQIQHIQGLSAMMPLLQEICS
- RUN DESCRIPTION: qHTS assay to identify small molecule agonists of the constitutive androstane receptor (CAR) signaling pathway (AID 1224839); further: nearly all actives have a fitted effect of over 15% in size;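 on activation: HepG2 cells stably carrying human CAR and a CYP2B6 luciferase reporter; on the % scale 0 is the no-effect control and ±100 the full control effect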
- CONDITION DETAILS: HepG2 hCAR CYP2B6-luciferase, agonist mode, 24 h; series mostly up to 92.4 µM
- Description: National Center for Advancing Translational Sciences [NCATS] NIH Chemical Genomics Center [NCGC] U.S. Environmental Protection Agency [EPA] National Institutes of Environmental Health Sciences [NIEHS] National Toxicology Program [NTP] […] Assay Protocol Summary: A double-stable (hCAR and CYP2B6-2.2kb) transfected cell line, derived from human hepatoma (HepG2) cells, was utilized for the duration of the quantitative high-throughput screens. […]
Inconclusive results are not listed. The source made the active and inactive calls. The call rests on the fitted dose curve; in most records, active means well fitted activation curve with a large enough effect in the repeat runs; inconclusive means weak or mixed curves; inactive means no such curve, though single readings can be large or run the other way.
Use one of these outcomes when replying: class 1 = active, class 0 = inactive

State the result this test recorded for `CCCCCCCCCCOC(=O)c1ccccc1C(=O)OCCCCCCCCCC` . class 0

State the result this test recorded for `O=C(O)COc1ccc(Cl)cc1` . class 0

State the result this test recorded for Clc1ccc(C(OCCN2CCCCC2)c2ccccc2)cc1 (configuration not stated) . class 0

State the result this test recorded for `O=C(O)C(F)(F)C(F)(F)C(F)(F)C(F)(F)C(F)(F)C(F)(F)C(F)(F)C(F)(F)C(F)(F)F` . class 0

State the result this test recorded for `CC(C)(CCl)C(=O)Cl` . class 0

State the result this test recorded for `C/C=C/C=O` . class 0

State the result this test recorded for `CC(=O)C(C)(C)C` . class 0

State the result this test recorded for O=C1C(Cl)C(CCl)CN1c1cccc(C(F)(F)F)c1 (configuration not stated) . class 0

State the result this test recorded for COc1cc(CC(C)N)cc2c1OCO2 (configuration not stated) . class 0

State the result this test recorded for `CCOC(=O)[C@]1(c2ccccc2)Oc2ccccc2[C@@H]1N` . class 0

State the result this test recorded for `O=C(O)c1ccccc1C(=O)Nc1cccc2ccccc12` . class 1

State the result this test recorded for `COc1nn(C(=O)NS(=O)(=O)c2ccccc2OC(F)(F)F)c(=O)n1C` . class 0

State the result this test recorded for COP(=S)(Oc1cc(Cl)c(Br)cc1Cl)c1ccccc1 (configuration not stated) . class 1

State the result this test recorded for `C/C(=C\c1ccccc1)[N+](=O)[O-]` . class 0

State the result this test recorded for `CCOP(=O)(OCC)Oc1ccc([N+](=O)[O-])cc1` . class 0

State the result this test recorded for `CC(C)=CCOc1c2occc2cc2ccc(=O)oc12` . class 1

State the result this test recorded for `O=[N+]([O-])C(Br)(CO)CO` . class 0

State the result this test recorded for `CCOc1ccc(C(C)(C)COCc2cccc(Oc3ccccc3)c2)cc1` . class 1

State the result this test recorded for `NS(=O)(=O)C(F)(F)C(F)(F)C(F)(F)C(F)(F)C(F)(F)C(F)(F)C(F)(F)C(F)(F)F` . class 0

State the result this test recorded for `CC(Cl)Cl` . class 0

State the result this test recorded for CNP(=O)(OC)Oc1ccc(C(C)(C)C)cc1Cl (configuration not stated) . class 1

State the result this test recorded for `CCCCCC[N+](=O)[O-]` . class 0

State the result this test recorded for CC1CC(CC2CCC(N)C(C)C2)CCC1N (configuration not stated) . class 0

State the result this test recorded for COC(=O)c1cncn1C(C)c1ccccc1 (configuration not stated) . class 0

State the result this test recorded for `CC(C)(Cl)[N+](=O)[O-]` . class 0

State the result this test recorded for `Clc1cccc2ccccc12` . class 0

State the result this test recorded for Clc1ccc(C2(Cn3cncn3)CC(Br)CO2)c(Cl)c1 (configuration not stated) . class 1

###

- SYSTEM UNDER TEST: Aromatase (Homo sapiens) (UniProt P11511)
- Sequence (P11511 whole entry, looked up): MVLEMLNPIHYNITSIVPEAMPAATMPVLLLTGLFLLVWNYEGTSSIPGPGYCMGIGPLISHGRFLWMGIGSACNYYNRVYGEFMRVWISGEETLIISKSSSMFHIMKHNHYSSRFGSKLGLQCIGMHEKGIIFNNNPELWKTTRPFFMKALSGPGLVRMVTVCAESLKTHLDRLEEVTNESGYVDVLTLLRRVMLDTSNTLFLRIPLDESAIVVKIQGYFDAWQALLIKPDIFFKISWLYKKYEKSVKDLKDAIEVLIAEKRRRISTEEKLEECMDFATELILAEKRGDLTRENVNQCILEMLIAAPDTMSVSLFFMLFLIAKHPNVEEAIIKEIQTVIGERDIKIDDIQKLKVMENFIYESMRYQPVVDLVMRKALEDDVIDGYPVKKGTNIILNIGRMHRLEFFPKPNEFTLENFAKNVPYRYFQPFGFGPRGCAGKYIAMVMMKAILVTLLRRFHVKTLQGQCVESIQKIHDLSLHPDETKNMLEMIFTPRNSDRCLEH
- RUN DESCRIPTION: qHTS assay to identify aromatase inhibitors (AID 743083); further: nearly all actives have a fitted effect of over 55% in size
- CONDITION DETAILS: MCF-7 aro ERE, testosterone-driven ERE luciferase, 24 h; series mostly up to 70.3 µM
Inconclusive results are not listed. The source made the active and inactive calls. The call rests on the fitted dose curve; in most records, active means well fitted inhibition curve with a large enough effect in the repeat runs; inconclusive means weak or mixed curves; inactive means no such curve, though single readings can be large or run the other way.
Use one of these outcomes when replying: 1 (active), 0 (inactive)

State the result this test recorded for `O=Cc1ccc2c(c1)OCO2` . 0

State the result this test recorded for CCC(C)(NC(=O)c1cc(Cl)c(C)c(Cl)c1)C(=O)CCl (centres undefined) . 1

State the result this test recorded for CC/C(=N\OC/C=C/Cl)C1=C(O)CC(C2CCOCC2)CC1=O (centres undefined) . 0

State the result this test recorded for `[O-][Cl+]O` . 0

State the result this test recorded for `O=C1CN=C(c2ccccc2)c2cc(Cl)ccc2N1CC1CC1` . 0

State the result this test recorded for `C[C@H]1CNCCc2ccc(Cl)cc21` . 0

State the result this test recorded for `C#CCOC(C(=O)OCCN(C)C)(c1ccccc1)c1ccccc1` . 0

State the result this test recorded for `O=C(NCc1cccnc1)Nc1ccc([N+](=O)[O-])cc1` . 0

State the result this test recorded for `N#C/C(N)=C(/N)C#N` . 0

State the result this test recorded for COC(=O)C(C)N(C(=O)Cc1ccccc1)c1c(C)cccc1C (centres undefined) . 0

State the result this test recorded for `Cc1ccc(N)cc1C` . 0

State the result this test recorded for `CC(C)(OO)c1ccccc1` . 0

State the result this test recorded for CC1(C)CCC(Cc2ccc(Cl)cc2)C1(O)Cn1cncn1 (centres undefined) . 1

State the result this test recorded for `COC(=O)C(Cl)C(=O)OC` . 0
